meta.source: ChEMBL document CHEMBL3044606

Each record here notes measured KSV.
ASSAY TARGET: Albumin (Bos taurus)
Sequence (P02769 whole entry): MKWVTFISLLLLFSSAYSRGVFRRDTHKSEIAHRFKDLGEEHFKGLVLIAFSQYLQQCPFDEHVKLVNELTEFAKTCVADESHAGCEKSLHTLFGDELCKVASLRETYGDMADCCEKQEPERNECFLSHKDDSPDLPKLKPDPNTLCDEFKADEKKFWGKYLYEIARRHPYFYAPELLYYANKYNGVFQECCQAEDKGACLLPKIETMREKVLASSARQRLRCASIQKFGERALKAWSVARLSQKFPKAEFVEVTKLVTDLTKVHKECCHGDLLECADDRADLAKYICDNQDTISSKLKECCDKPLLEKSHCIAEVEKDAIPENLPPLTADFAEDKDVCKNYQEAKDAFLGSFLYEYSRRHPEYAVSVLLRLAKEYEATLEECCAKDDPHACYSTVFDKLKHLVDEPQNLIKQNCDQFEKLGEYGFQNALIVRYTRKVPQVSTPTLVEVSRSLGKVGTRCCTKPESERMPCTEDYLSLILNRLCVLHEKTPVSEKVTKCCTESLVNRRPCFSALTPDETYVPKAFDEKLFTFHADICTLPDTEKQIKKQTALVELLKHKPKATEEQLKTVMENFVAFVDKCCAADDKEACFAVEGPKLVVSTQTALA
METHOD: Binding affinity to Bos taurus (bovine) serum albumin after 5 min at 37 degC by Stern-Volmer plot analysis
Assay type: ADME
EXPERIMENTAL PARAMETERS: cattle, isolated protein
EXPERIMENTAL READOUT: KSV (×10³ /M)

- CCCCCCCCCCCCCC(=O)CC(O)S(=O)(=O)[O-].[Na+] (stereo not given) [TETRADECANOYL ACETAL SODIUM SULFITE]: 93.2
- CCCCCCCCCCCC(=O)CC(O)S(=O)(=O)[O-].[Na+] (stereo not given) [DODECANOYL ACETAL SODIUM SULFITE]: 72
- CCCCCCCC(=O)CC(O)S(=O)(=O)[O-].[Na+] (stereo not given) [OCTANOYL ACETAL SODIUM SULFITE]: 529.2
- CCCCCCCCCC(=O)CC(O)S(=O)(=O)[O-].[Na+] (stereo not given) [SODIUM HOUTTUYFONATE]: 113
- CCCCCC(=O)CC(O)S(=O)(=O)[O-].[Na+] (stereo not given) [HEXANOYL ACETAL SODIUM SULFITE]: 73.5
